assay: absolute recovery over vacuum-assisted evaporative concentration; higher = better recovery; details: wastewater effluent; enrichment method: VEC

compound: CC1CC2C(C(O)CC3(C)C2CCC3(O)C(=O)CO)C2(C)C=CC(=O)C=C12 (stereo not drawn)
absolute recovery (%): 106
--
compound: O=C([O-])C[NH+](CCC[NH+](CC(=O)[O-])CC(=O)[O-])CC(=O)[O-]
absolute recovery (%): 85.1
--
compound: O=C(Cc1ccccc1)NC(=NOCC1CC1)c1c(C(F)(F)F)ccc(F)c1F
absolute recovery (%): 95.4
--
compound: FC(F)(F)c1cccc(N2CC[NH2+]CC2)c1
absolute recovery (%): 97.4
--
compound: CC(C)(C)[NH2+]CC(O)c1ccc(O)c(CO)c1 (stereo not drawn)
absolute recovery (%): 102
--
compound: CC(C)c1ccc(N)cc1
absolute recovery (%): 93.8
--
compound: C[NH+](C)CCOC(C)(c1ccccc1)c1ccccn1 (stereo not drawn)
absolute recovery (%): 120
--
compound: [NH3+]C12CC3CC(CC(C3)C1)C2
absolute recovery (%): 104
--
compound: COc1cc(NC(C)CCC[NH3+])c2ncccc2c1 (stereo not drawn)
absolute recovery (%): 60.5
--
compound: CC(C)c1c(C(=O)Nc2ccccc2)c(-c2ccccc2)c(-c2ccc(F)cc2)n1CCC(O)CC(O)CC(=O)[O-] (stereo not drawn)
absolute recovery (%): 49.3
--
compound: CCCCNC(=O)OCC#CI
absolute recovery (%): 60.1
--
compound: CCOC(=O)C1=CC(OC(CC)CC)C(NC(C)=O)C([NH3+])C1 (stereo not drawn)
absolute recovery (%): 101
--
compound: CCCC1CC(C(=O)NC(C(C)Cl)C2OC(SC)C(O)C(O)C2O)[NH+](C)C1 (stereo not drawn)
absolute recovery (%): 100
--
compound: CC(C)Cc1ccc(C(C)C(=O)[O-])cc1 (stereo not drawn)
absolute recovery (%): 98.5
--
compound: Cn1nnc2ccccc21
absolute recovery (%): 83.9
--
compound: CCCCCCCCCCCCCC[N+](C)(C)CCCCCCCCCCCCCC
absolute recovery (%): 119
--
compound: COC(=O)c1sccc1S(=O)(=O)[N-]C(=O)Nc1nc(C)nc(OC)n1
absolute recovery (%): 104
--
compound: CC(C)n1c(C=CC(O)CC(O)CC(=O)[O-])c(-c2ccc(F)cc2)c2ccccc21 (stereo not drawn)
absolute recovery (%): 105
